B1: KLHL13 (parent)
chain: TGEFLKLPFERLAFVLSSNSLKHC

Variants of: B1
methodNotes: protein stability index of a GFP-peptide fusion (GPS, HEK-293T) (PSI 1-6); higher = more stable;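 note: lentivirally expressed fusions sorted by FACS into six bins by GFP to DsRed ratio, PSI derived from sequencing read proportions per bin multiplied by bin number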
conditionParameters: c terminus: a fixed tail appended
readoutName: protein stability index
Field format: numeric only.

In: Please give the measured protein stability index for this variant: E10K
Out: 2.76

In: Please give the measured protein stability index for this variant: N19D
Out: 1.56

In: Please give the measured protein stability index for this variant: S18C
Out: 3.11

In: Please give the measured protein stability index for this variant: S18W
Out: 2.81

In: Please give the measured protein stability index for this variant: V15D
Out: 1.82

In: Please give the measured protein stability index for this variant: V15R
Out: 1.53

In: Please give the measured protein stability index for this variant: R11W
Out: 2.11

In: Please give the measured protein stability index for this variant: C24S
Out: 1.76

In: Please give the measured protein stability index for this variant: F9H
Out: 1.71

In: Please give the measured protein stability index for this variant: L7K
Out: 1.86

In: Please give the measured protein stability index for this variant: T1Q
Out: 2.82

In: Please give the measured protein stability index for this variant: L16D
Out: 2.37

In: Please give the measured protein stability index for this variant: L5R
Out: 2.16

In: Please give the measured protein stability index for this variant: F14V
Out: 1.13

In: Please give the measured protein stability index for this variant: H23D
Out: 2.27

In: Please give the measured protein stability index for this variant: L16N
Out: 2.93

In: Please give the measured protein stability index for this variant: S17R
Out: 2.82

In: Please give the measured protein stability index for this variant: K6I
Out: 2.34

In: Please give the measured protein stability index for this variant: F14H
Out: 1.8

In: Please give the measured protein stability index for this variant: S20L
Out: 3.05

In: Please give the measured protein stability index for this variant: V15W
Out: 3.3

In: Please give the measured protein stability index for this variant: L7D
Out: 1.25

In: Please give the measured protein stability index for this variant: E10P
Out: 2.75
